System: Escherichia coli ATCC 25922
Assay type: cell-based
Settings: ATCC 25922, 18 h
Residues, ends and D or L forms follow the SMILES beside them. *: point of attachment. Palmitoyl = CCCCCCCCCCCCCCCC(=O)*; Myristoyl = CCCCCCCCCCCCCC(=O)*; Lauroyl = CCCCCCCCCCCC(=O)*
endpoint_name: MIC E. coli

Some compounds with recorded MIC E. coli:
compound="CCCCCCCCCCCCCCCCCC(=O)N[C@@H](CCCCN)C(=O)N[C@@H](CCCCN)C(N)=O [Peptide C18-KK-NH2]" measurement="128 µg/mL"
compound="CCCCCCCCCCCCCCCC(=O)N[C@@H](CCCCN)C(=O)NCCC(=O)N[C@@H](CCCCN)C(N)=O [Peptide C16-KβAK-NH2]" measurement="64 µg/mL"
compound="CCCCCCCCCCCCCCCC(=O)N[C@@H](CCCCN)C(=O)N[C@@H](CCCCN)C(N)=O [Peptide C16-KK-NH2]" measurement="8 µg/mL"

Hi team, please reply with MIC E. coli for each item in this list.
1. CCCCCCCCCCCCCCCC(=O)N[C@@H](CCCCN)C(=O)NCC(=O)N[C@@H](CCCCN)C(N)=O [Peptide C16-KGK-NH2] (Palmitoyl-Lys-Gly-Lys-NH2)
2. CCCCCCCCCCCCCC(=O)N[C@@H](CCCCN)C(=O)N[C@@H](CCCCN)C(=O)N[C@@H](CCCCN)C(=O)N[C@@H](CCCCN)C(N)=O [Peptide C14-KKKK-NH2] (Myristoyl-KKKK-NH2)
3. CCCCCCCCCCCC(=O)N[C@@H](CCCCN)C(=O)N[C@@H](CCCCN)C(=O)N[C@@H](CCCCN)C(=O)N[C@@H](CCCCN)C(N)=O [Peptide C12-KKKK-NH2] (Lauroyl-KKKK-NH2)
4. CCCCCCCCCCCC(=O)N[C@@H](CCCCN)C(=O)N[C@@H](CCCNC(=N)N)C(=O)N[C@@H](CCCCN)C(=O)N[C@@H](CCCCN)C(N)=O [Peptide C12-KRKK-NH2] (Lauroyl-KRKK-NH2)

8 µg/mL
128 µg/mL
512 µg/mL
512 µg/mL

Record MIC E. coli for all entries; do not skip any.
1. CCCCCCCCCCCCCC(=O)N[C@@H](CCCCN)C(=O)N[C@@H](CCCCN)C(=O)N[C@@H](CCCCN)C(=O)N[C@@H](CCCNC(=N)N)C(N)=O [Peptide C14-KKKR-NH2] (Myristoyl-KKKR-NH2)
2. CCCCCCCCCCCCCC(=O)N[C@@H](CCCCN)C(=O)N[C@@H](CCCNC(=N)N)C(=O)N[C@@H](CCCCN)C(=O)N[C@@H](CCCCN)C(N)=O [Peptide C14-KRKK-NH2] (Myristoyl-KRKK-NH2)
3. CCCCCCCCCCCCCCCC(=O)N[C@@H](CCCCN)C(=O)N[C@@H](CCCCN)C(=O)N[C@@H](CCCCN)C(=O)N[C@@H](CCCCN)C(N)=O [Peptide C16-KKKK-NH2] (Palmitoyl-KKKK-NH2)

["128 µg/mL", "64 µg/mL", "16 µg/mL"]

Values were extracted from paper PMC9686977.
